- Assay system: GFP-CESA6c: GFP-tagged central cytosolic domain of AtCESA6 (cellulose synthase, CESA6) with a His-SUMO tag (Arabidopsis thaliana, UniProt Q94JQ6)
- Construct: His-SUMO; made in house; host or cells: E. coli
- Sequence (Q94JQ6 322-868 limits assumed): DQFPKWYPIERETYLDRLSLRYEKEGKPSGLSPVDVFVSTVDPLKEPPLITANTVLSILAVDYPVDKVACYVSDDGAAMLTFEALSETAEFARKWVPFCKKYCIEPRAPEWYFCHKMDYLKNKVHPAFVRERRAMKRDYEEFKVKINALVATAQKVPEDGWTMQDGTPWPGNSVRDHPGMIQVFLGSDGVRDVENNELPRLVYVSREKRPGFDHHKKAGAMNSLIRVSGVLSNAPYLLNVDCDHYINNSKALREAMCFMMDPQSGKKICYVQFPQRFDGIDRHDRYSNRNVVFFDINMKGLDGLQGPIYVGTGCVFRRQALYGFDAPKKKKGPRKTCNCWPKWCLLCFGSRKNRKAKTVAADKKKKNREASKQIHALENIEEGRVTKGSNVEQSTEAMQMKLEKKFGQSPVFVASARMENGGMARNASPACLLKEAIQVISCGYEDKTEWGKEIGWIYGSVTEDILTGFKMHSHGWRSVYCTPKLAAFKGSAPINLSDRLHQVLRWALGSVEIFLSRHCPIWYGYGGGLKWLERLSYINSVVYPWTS
- Test name: Microscale thermophoresis (MST) binding to purified GFP-tagged CESA6c (wild-type)
- Condition notes: FIG. 3N, GFP-CESA6c purified from E. coli, pH 7.5, 10 mM MgCl2, 0.05% Tween 20, triplicate, read-out: Kd, thermophoresis binding curve, GFP-CESA6c
Observation type: Kd (µM)
Express your answer in µM, writing the number without its unit.

Give Kd for the following molecule: Cc1cccnc1NC(=S)NC(=O)c1cccc([N+](=O)[O-])c1C
5.1

----------
- Assay system: GFP-CESA6c (central cytosolic domain of AtCESA6) (Arabidopsis thaliana)
- Construct: made in house; host or cells: E. coli
- Test name: MST assay with GFP-CESA6c
- Format: binding
- Condition notes: 100 nM GFP-CESA6c

{"columns": ["Molecule", "interaction with CESA6c"],
 "data": [
  ["COc1ccc(C(=O)NC(=S)NNC(=O)c2ccccc2C)cc1 [ES20, Endosidin20]", "interacted"],
  ["Cc1ccccc1C(=O)NNC(=S)NC(=O)c1ccccc1 [ES20-1]", "interacted"]
]}
